# Tested on: U-2932
# experimentNotes: growth inhibition by drug plus 177Lu-lilotomab satetraxetan (1 - RLU/untreated control) (fraction); higher = stronger inhibition
# conditionParameters: 10 nM; time (day): 6; 177Lu-lilotomab satetraxetan 1 ug/ml
Rule: Fulfilled for growth inhibition by drug plus 177Lu-lilotomab satetraxetan not less than 0.1, Not fulfilled for anything less.

Below, 5 molecules whose answers are already recorded.
Cn1cc(C2=C(c3ccc(Cl)cc3Cl)C(=O)NC2=O)c2ccccc21 :: Not fulfilled
COc1ccc(C2CC(c3ccccc3)=NN2c2ccc(S(N)(=O)=O)cc2)cc1 (centres undefined) :: Not fulfilled
c1ccc2c(-c3cnn4cc(-c5ccc(N6CCNCC6)cc5)cnc34)ccnc2c1 :: Not fulfilled
CCN(CC)CCOc1ccc(Nc2ncc3cc(-c4c(Cl)cccc4Cl)c(=O)n(C)c3n2)cc1 :: Fulfilled
CN(c1ncccc1CNc1nc(Nc2ccc3c(c2)CC(=O)N3)ncc1C(F)(F)F)S(C)(=O)=O :: Fulfilled

We next turn to a different molecule, shown below.
Asked: # check: growth inhibition by drug plus 177Lu-lilotomab satetraxetan of C=CC(=O)Nc1cccc(Oc2nc(Nc3ccc(N4CCN(C)CC4)cc3OC)ncc2Cl)c1 is greater than or equal to 0.1
Given back: Fulfilled
